- Tested on: Plasmodium berghei
- test_description: Antimalarial activity against Plasmodium berghei ANKA expressing GFP infected in Balb/c mouse assessed as inhibition of parasitemia at 10 mg/kg, po qd administered as single dose on day 3 to 5 of exposure measured on day 6 post exposure by in vivo thomson test relative to control
- Assay type: functional
assay_endpoint: inhibition in vivo at 10 mg/kg

Consider the reported inhibition in vivo at 10 mg/kg for these molecules:
COc1cc2[nH]c(C)c(-c3ccc(CO)cc3)c(=O)c2cc1Cl ... < 1%
COc1cc2[nH]c(C)c(-c3ccc(N(C)C)nc3)c(=O)c2cc1Cl ... < 1%

// moving on: another record for inhibition in vivo at 10 mg/kg
Write down measured inhibition in vivo at 10 mg/kg (Plasmodium berghei) for this molecule. `COc1cc2[nH]c(C)c(-c3ccco3)c(=O)c2cc1Cl`
< 1%
